# system.name: IRAP (Homo sapiens, UniProt Q9UIQ6)
# Construct: The screen was performed with the soluble truncated IRAP enzyme; made in house
# Sequence (Q9UIQ6 155-1025 limits assumed): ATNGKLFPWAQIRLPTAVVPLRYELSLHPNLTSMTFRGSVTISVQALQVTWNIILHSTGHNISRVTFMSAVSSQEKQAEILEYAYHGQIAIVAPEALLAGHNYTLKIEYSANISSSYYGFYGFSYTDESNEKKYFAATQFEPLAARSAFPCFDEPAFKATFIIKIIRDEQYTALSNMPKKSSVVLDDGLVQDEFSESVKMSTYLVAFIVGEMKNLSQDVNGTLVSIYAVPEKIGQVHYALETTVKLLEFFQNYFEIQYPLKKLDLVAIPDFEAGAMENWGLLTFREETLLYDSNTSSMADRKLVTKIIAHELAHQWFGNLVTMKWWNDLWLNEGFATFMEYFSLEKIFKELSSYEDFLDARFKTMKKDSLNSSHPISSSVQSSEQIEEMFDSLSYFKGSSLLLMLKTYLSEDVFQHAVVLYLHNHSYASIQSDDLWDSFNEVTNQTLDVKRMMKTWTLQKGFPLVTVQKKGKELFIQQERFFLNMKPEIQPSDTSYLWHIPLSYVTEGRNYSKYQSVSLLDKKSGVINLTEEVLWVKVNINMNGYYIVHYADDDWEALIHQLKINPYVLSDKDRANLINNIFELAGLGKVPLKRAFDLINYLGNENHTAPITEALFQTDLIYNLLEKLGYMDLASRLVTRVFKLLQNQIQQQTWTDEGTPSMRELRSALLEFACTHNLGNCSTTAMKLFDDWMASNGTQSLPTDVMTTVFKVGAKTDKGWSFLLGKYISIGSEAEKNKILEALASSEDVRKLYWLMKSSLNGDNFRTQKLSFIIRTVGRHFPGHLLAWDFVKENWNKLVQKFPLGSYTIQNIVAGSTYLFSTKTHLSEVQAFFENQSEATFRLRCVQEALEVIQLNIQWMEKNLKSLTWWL
# assay.remarks: Primary fluorescence IRAP assay (L-Leucine-7-amido-4-methylcoumarin cleavage)
# Assay type: biochemical
# settings: calculated from (pIC50Fluorescence − LogD)
parameter: LipE
Number only, no unit.

For reference, reported LipE for NCC[C@H]1CCCCN1C(=O)Cn1nc(-c2ccc(Cl)cc2)c2c1CCCC2 stands at 2.57

Form: molecule = CC(C)CC(C(=O)NO)S(=O)(=O)N1CCN(c2ccc(F)cc2)CC1 (stereo not drawn) ; LipE = 3.57

According to the records, this molecule O=C(C1CCCCC1)N1CCC[C@@H]1c1cc(-c2cccnc2)on1 displays LipE of 2.14

For O=C(Cc1cc(N2CCCCCC2)nc(-c2ccc(Cl)cc2)n1)NO the molecule record lists LipE as 1.60

In plain terms, COc1cc2c(cc1-c1cnco1)C(=O)N(C)C(C)(C=Cc1ccncc1)N2 (stereo not drawn) has a documented LipE of 3.82

Consider O=c1cc(N2CCCC2)nc2n(Cc3cc(Cl)ccc3Cl)ccn12 . Its measured LipE is 3.54

LipE measured on Fc1ccc(F)c(Cn2ccc3ncccc32)c1Cl = 1.05

// field: LipE; key: Cc1cc(NC(=O)Cn2cnc3sc4c(c3c2=O)CCCC4)n(-c2ccccc2)n1 ; value = 2.19

Given item CC(C)c1cc(C(=O)N2CCc3n[nH]c(-c4cccs4)c3CC2)[nH]n1 , the value recorded as its LipE is 1.83

So for Cc1cccc(Cl)c1CNc1ncnc2ncn(C)c12 , the logged LipE turned out to be 1.68

More entries:
LipE reading for O=C(N1CCCC1)C1(CNS(=O)(=O)c2cccc3ccccc23)CC12CCCCC2 (stereo not drawn) : 1.74

Sure, the documented LipE for Nc1nc2cc(C(=O)O)ccc2n1Cc1cc(F)cc(F)c1 is 3.88

====

# system.name: IRAP (Homo sapiens, UniProt Q9UIQ6)
# Construct: The screen was performed with the soluble truncated IRAP enzyme; made in house
# assay.remarks: Primary fluorescence IRAP assay (L-Leucine-7-amido-4-methylcoumarin cleavage)
# Format: biochemical
# settings: 37.5 µM L-Leucine-7-amido-4-methylcoumarin, 60 min RT, dose-response 20 µM-27.4 nM; read-out: Fluorescence IC50
Listing: pIC50 of selected compounds
Entry type: numeric. Quantity: pIC50, the -log10 of concentration in molar units.

Briefly, pIC50 measured for CCCNc1nc(N(C)C)nc2cc(OC)c(OC)cc12 : 5.46

====

Below is a list of entries, each paired with its recorded pIC50 value.
# system.name: IRAP (Homo sapiens, UniProt Q9UIQ6)
# Construct: The screen was performed with the soluble truncated IRAP enzyme; made in house
# assay.remarks: Primary fluorescence IRAP assay (L-Leucine-7-amido-4-methylcoumarin cleavage)
# Type: biochemical
# settings: 37.5 µM L-Leucine-7-amido-4-methylcoumarin, 60 min RT, dose-response 20 µM-27.4 nM; read-out: Fluorescence IC50
# pIC50: negative log10 of molar concentration; output just the value

Nc1nc2cc(C(=O)O)ccc2n1Cc1cc(F)cc(F)c1 has a reported pIC50 of 5.41

Lab note: Fc1ccc(F)c(Cn2ccc3ncccc32)c1Cl gave pIC50 of 5.46

Entry O=c1cc(N2CCCC2)nc2n(Cc3cc(Cl)ccc3Cl)ccn12 — recorded pIC50 = 5.62

Turning to the following compound.
Looking up Cc1cc(NC(=O)Cn2cnc3sc4c(c3c2=O)CCCC4)n(-c2ccccc2)n1 , I found its pIC50 recorded as 5.58

Hello, the source for this data is paper PMC11012289, in case you need it.
